Numbers sourced from patent US20250084078A1.

Assay System: HPK1 (Homo sapiens, UniProt Q92918)
Protocol Text: HPK1 kinase activity assay (ADP-Glo)
Experimental Conditions: HPK1 Kinase activity IC50, ADP-Glo; 1 nM HPK1, 10 μM ATP, 0.1 μg/μL MBP
Sequence (Q92918 1-346): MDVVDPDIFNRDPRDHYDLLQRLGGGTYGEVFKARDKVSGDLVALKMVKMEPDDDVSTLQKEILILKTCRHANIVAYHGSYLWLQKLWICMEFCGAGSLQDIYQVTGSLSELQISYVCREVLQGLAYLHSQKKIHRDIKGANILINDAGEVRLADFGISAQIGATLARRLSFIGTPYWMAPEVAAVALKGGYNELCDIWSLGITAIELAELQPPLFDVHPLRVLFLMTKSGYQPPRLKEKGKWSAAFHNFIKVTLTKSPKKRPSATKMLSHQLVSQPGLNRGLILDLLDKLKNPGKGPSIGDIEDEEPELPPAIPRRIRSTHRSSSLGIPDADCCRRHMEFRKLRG
Reported Endpoint: IC50 (nM)

The compound Cc1c[nH]c2ncc(-c3cc4c(c([C@@H]5COCCN5)c3)CN(C(=O)N3CC[C@H](F)C3)CC4)cc12 [Compound Z488] showed IC50 equal to 0.21

[A] O=C(N1CCc2cc(-c3cnc4[nH]cc(Cl)c4c3)cc([C@@H]3COCCN3)c2C1)N1CC[C@H](F)C1 [Compound Z604]
[B] Cc1c[nH]c2ncc(-c3cc4c(c([C@@H]5COCCN5)c3)CN(C(=O)N3CCOC[C@@H]3C)CC4)cc12 [Compound Z581]
[C] Cc1c[nH]c2ncc(-c3cc4c(c([C@H]5COCCN5)c3)CCN(C(=O)C3CCOCC3)C4)cc12 [Compound Z449]
Problem: Arrange items by their IC50 values in increasing order. Return value: ordered labels per request.
Solution: B, A, C

====

Assay System: HPK1 (Homo sapiens)
Protocol Text: SLP76 phosphorylation assay (intracellular HPK1 inhibitory activity, p-SLP76 S376 ELISA in Jurkat cells)
Experimental Conditions: p-SLP76 IC50, Jurkat, Clone E6-1 cells; 1 h compound pre-incubation; anti-CD3 beads stimulation 20 min; Phospho-SLP-76 (Ser376) ELISA
Sequence (Q92918 whole entry): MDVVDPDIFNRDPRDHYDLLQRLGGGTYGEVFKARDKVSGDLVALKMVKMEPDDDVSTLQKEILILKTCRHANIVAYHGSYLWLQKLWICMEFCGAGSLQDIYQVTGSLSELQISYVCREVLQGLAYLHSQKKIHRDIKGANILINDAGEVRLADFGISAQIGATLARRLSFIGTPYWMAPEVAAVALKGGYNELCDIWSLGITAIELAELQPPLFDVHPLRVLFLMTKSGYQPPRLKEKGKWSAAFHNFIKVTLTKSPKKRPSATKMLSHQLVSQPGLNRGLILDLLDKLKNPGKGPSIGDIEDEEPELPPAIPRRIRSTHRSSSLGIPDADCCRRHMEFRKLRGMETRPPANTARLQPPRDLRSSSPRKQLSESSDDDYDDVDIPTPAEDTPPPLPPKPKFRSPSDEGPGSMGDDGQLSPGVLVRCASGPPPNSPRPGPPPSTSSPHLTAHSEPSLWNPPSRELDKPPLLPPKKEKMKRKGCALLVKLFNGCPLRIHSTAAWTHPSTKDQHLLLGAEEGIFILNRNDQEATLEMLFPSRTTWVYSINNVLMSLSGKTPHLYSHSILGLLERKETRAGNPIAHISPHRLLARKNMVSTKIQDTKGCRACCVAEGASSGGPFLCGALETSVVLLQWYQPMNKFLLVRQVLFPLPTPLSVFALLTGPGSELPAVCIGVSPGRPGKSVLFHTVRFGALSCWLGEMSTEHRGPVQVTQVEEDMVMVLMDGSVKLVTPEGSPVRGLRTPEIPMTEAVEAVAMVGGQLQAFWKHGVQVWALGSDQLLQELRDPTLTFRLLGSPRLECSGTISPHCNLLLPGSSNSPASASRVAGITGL
pIC50: −log10 of the molar value.
Reported Endpoint: pIC50

Completed entries (count: 3):
The compound Cc1c[nH]c2ncc(-c3cc4c(c([C@@H]5COCCN5)c3)CN(C(=O)N3CC(C)OCC3C)CC4)cc12 (some centres unmarked) showed pIC50 equal to 6.90

The compound Cc1c[nH]c2ncc(-c3cc4c(c([C@@H]5CCCN5)c3)CN(C(=O)N3CCOC(C(F)(F)F)C3)CC4)cc12 (some centres unmarked) [Compound Z497] showed pIC50 equal to 6.73

The compound "Cc1c[nH]c2ncc(-c3cc4c(c([C@@H]5COCCN5)c3)CN(C(=O)N3C[C@@H](C)O[C@H](C)C3)CC4)nc12" showed pIC50 equal to 6.99

[P] Cc1c[nH]c2ncc(-c3cc4c(c([C@@H]5COCCN5)c3)CN(C(=O)N3C[C@@H](C)O[C@H](C)C3)CC4)cc12
[Q] Cc1c[nH]c2ncc(-c3cc4c(c([C@@H]5COCCN5)c3)CCN(C(=O)C3CCOCC3)C4)cc12
Problem: Choose between P and Q : whose measured pIC50 value is numerically larger? The response must carry the label of the picked entry.
Solution: P
(P: 6.98, Q: 6.72)
